In this section we review reported pEC50 values for a set of molecules.
- tgt: UniProt:P11229
- Sequence (P11229 1-460): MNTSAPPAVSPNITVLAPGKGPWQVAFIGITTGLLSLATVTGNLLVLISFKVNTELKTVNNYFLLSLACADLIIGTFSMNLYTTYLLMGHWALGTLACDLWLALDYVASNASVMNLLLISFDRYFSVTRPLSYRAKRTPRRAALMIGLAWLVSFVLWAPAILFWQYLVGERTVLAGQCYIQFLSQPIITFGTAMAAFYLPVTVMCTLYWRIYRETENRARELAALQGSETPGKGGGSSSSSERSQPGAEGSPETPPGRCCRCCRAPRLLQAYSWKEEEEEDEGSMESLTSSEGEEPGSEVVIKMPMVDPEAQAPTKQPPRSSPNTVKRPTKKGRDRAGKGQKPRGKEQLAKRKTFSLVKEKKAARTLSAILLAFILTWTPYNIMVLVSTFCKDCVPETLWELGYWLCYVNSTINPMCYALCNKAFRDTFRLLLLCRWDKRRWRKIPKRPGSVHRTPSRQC
- experimentDescription: M1 PAM Assay (IP-One HTRF, IP1 in M1-CHO cells with EC20 of acetylcholine)
- conditionDetails: 1 hour at room temperature, IP1 readout
pEC50: −log10 of the molar value.

// solved cases for pEC50 follow
>>> obsvalue("COC(=O)c1ccccc1C(=O)N1Cc2nn3c(C)c(C)c(C)nc3c2C1")
"5.70 to 6.00"
>>> obsvalue("Cc1nc2c3c(nn2c(C)c1C)CN(C(=O)c1ccccc1OCc1ccccc1)C3")
"5.70 to 6.00"

Qu. Provide value of pEC50 for this record tested with UniProt:P11229: Cc1nc2c3c(nn2c(C)c1C)CN(C(=O)c1ccccc1OC(C)C)C3
Ans. 6.00 to 6.70

Qu. Cc1cnc2c3c(nn2c1C)CN(C(=O)c1ccccc1N1CCCN(C)CC1)C3 ?
Ans. 5.70 to 6.00

Qu. CCCCOc1ccccc1C(=O)N1Cc2nn3c(C)c(Cl)c(C)nc3c2C1 ?
Ans. 6.00 to 6.70

----------
- tgt: UniProt P11229
- Sequence (P11229 1-460): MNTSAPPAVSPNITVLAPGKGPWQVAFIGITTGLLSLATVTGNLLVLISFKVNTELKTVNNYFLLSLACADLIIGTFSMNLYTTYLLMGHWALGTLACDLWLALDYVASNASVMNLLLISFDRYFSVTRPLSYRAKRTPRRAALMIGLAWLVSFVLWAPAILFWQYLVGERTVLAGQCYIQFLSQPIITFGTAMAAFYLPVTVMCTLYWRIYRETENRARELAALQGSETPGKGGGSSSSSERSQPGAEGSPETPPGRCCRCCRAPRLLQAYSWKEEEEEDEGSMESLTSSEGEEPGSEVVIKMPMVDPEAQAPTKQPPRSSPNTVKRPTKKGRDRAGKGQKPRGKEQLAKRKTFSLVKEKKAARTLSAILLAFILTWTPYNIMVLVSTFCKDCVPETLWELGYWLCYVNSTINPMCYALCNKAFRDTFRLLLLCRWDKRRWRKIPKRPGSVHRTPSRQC
- experimentDescription: M1 PAM Assay (IP-One HTRF, IP1 in M1-CHO cells with EC20 of acetylcholine)
- conditionDetails: 1 hour at room temperature, IP1 readout
pEC50: −log10 of the molar value.
property: pEC50

// solved cases for pEC50 follow
>>> obsvalue("Cc1nc2c3c(nn2c(C)c1Cl)CN(C(=O)c1ccccc1OCCN(C)C)C3")
"6.00 to 6.70"
>>> obsvalue("Cc1nc2c3c(nn2c(C)c1C)CN(C(=O)c1ccccc1OC1CCN(C)CC1)C3")
"6.00 to 6.70"
>>> obsvalue("Cc1nc2c3c(nn2c(C)c1Cl)CN(C(=O)c1ccccc1OC(C)C)C3")
"6.00 to 6.70"
>>> obsvalue("CCOc1ccccc1C(=O)N1Cc2nn3c(C)c(CC)c(C)nc3c2C1")
"5.70 to 6.00"
>>> obsvalue("CCOc1ccc(Cl)cc1C(=O)N1Cc2nn3c(C)c(C)c(C)nc3c2C1")
"5.70 to 6.00"

Qu. Please look up its pEC50: Cc1cn2nc3c(c2nc1C)CN(C(=O)c1ccccc1N1CCCN(C)CC1)C3
Ans. 5.70 to 6.00

Qu. CCOc1cc(F)ccc1C(=O)N1Cc2nn3c(C)c(Cl)c(C)nc3c2C1 ?
Ans. 6.00 to 6.70

Qu. Cc1nc2c3c(nn2c(C)c1C)CN(C(=O)c1ccccc1Br)C3 ?
Ans. 5.70 to 6.00

Qu. Cc1nc2c3c(nn2c(C)c1C)CN(C(=O)c1ccccc1N1CCN(C)CC1)C3 ?
Ans. 5.70 to 6.00

The reported numbers originate from patent US9403835B2.
